All values here come from patent US7435837B2.

Attribute: pKi
targetOrTestSystem: human 5-hydroxytryptamine-2C (h5-HT2C) receptor (Homo sapiens, UniProt P28335)
Construct: expressed in transfected cells; host or cells: CHO (Chinese Hamster Ovary) cells; membranes
assayOverview: [125I]DOI binding to membranes of CHO cells expressing the human 5-HT2C receptor
conditionsUsed: [125I]DOI radioligand, CHO cell membranes, room temperature 60 min; read-out: 5-HT2C Affinity Ki
pKi: −log10 of the molar value.
reportedEndpoint: pKi

| compound | recordedValue |
| --- | --- |
| CNCC1Cc2cc(-c3cccc(OC)c3)cc(F)c2O1 (racemic) | 5.77 |
| CC(C)(C)c1cccc2c1OC(CN)C2 (single isomer, unassigned; (+)) [Example 26] | 7.15 |
| COc1ccccc1-c1cc(C(F)(F)F)cc2c1OC(CN)C2 (racemic) | 7.19 |

---

pKi values by entry
targetOrTestSystem: human 5-hydroxytryptamine-2C (h5-HT2C) receptor (Homo sapiens)
Construct: expressed in transfected cells; host or cells: CHO (Chinese Hamster Ovary) cells; membranes
assayOverview: [125I]DOI binding to membranes of CHO cells expressing the human 5-HT2C receptor
conditionsUsed: [125I]DOI radioligand, CHO cell membranes, room temperature 60 min; read-out: 5-HT2C Affinity Ki
pKi: −log10 of the molar value.

| molecule | pKi |
| --- | --- |
| COc1cccc2c1OC(CN)C2 (racemic) [Example 7] | 6.80 |
| CNCC1Cc2cc(OC)cc(-c3c(C)cccc3C)c2O1 (single isomer, unassigned; (+)) [Example 561] | 8.57 |
| NCC1Cc2cccc(Nc3ccc(Cl)c(Cl)c3)c2O1 (racemic) [Example 179] | 6.36 |
| CC(C)(C)/C=C/c1cccc2c1OC(CN)C2 (racemic) [Example 117] | 6.58 |
| CNCC1Cc2cc(-c3ccccc3)cc(-c3cccc(OC)c3)c2O1 (racemic) [Example 515] | 6.02 |
| CNCC1Cc2cc(-c3ccc(C)cc3)cc(F)c2O1 (racemic) [Example 538] | 6.42 |
| CNCC1Cc2cc(C)cc(-c3ccc(Cl)cc3Cl)c2O1 (racemic) [Example 485] | 8.52 |
| COc1cc2c(c(-c3cc(C)ccc3C)c1)OC(CN)C2 (racemic) [Example 370] | 7.52 |
| COc1ccc(-c2cc(C)cc3c2OC(CN)C3)cc1 (racemic) [Example 293] | 8.42 |
| CCc1cc2c(c(-c3ccccc3Cl)c1)OC(CN)C2 (racemic) [Example 306] | 9.24 |
| Cc1c(Cl)cc(C(C)C)c2c1CC(CN)O2 (single isomer, unassigned; (-)) [Example 22] | 8.30 |
| Cc1ccc(Nc2cccc3c2OC(CN)C3)cc1Cl (racemic) [Example 188] | 6.24 |

---

Examples of compounds with documented Ki follow.
targetOrTestSystem: human 5-hydroxytryptamine-2C (h5-HT2C) receptor (Homo sapiens, UniProt P28335)
Construct: expressed in transfected cells; host or cells: CHO (Chinese Hamster Ovary) cells; membranes
Sequence (P28335 33-458): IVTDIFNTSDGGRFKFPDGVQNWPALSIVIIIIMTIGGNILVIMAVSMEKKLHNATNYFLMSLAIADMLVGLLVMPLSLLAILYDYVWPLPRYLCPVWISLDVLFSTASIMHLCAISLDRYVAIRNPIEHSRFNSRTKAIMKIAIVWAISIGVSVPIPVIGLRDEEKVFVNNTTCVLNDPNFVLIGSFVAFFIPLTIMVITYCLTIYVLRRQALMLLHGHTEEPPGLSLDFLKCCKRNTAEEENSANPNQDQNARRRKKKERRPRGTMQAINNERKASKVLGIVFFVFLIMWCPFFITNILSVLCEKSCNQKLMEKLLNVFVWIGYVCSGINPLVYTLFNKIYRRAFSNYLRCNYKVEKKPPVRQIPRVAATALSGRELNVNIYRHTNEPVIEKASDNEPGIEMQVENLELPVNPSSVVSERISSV
assayOverview: [125I]DOI binding to membranes of CHO cells expressing the human 5-HT2C receptor
conditionsUsed: [125I]DOI radioligand, CHO cell membranes, room temperature 60 min; read-out: 5-HT2C Affinity Ki

| compound | targetOrTestSystem | Ki, nM |
| --- | --- | --- |
| COc1ccc(OC)c(-c2cc(OC)cc3c2OC(CN)C3)c1 (racemic) | human 5-hydroxytryptamine-2C (h5-HT2C) receptor (Homo sapiens, UniProt P28335) | 14 |
| CNCC1Cc2cc(C)cc(-c3cccc(C)c3)c2O1 (racemic) | human 5-hydroxytryptamine-2C (h5-HT2C) receptor (Homo sapiens, UniProt P28335) | 11 |
| COc1ccc(Cl)cc1-c1cccc2c1OC(CN)C2 (racemic) | human 5-hydroxytryptamine-2C (h5-HT2C) receptor (Homo sapiens, UniProt P28335) | 14 |
| NCC1Cc2cc(C3CCCC3)cc(-c3ccccc3Cl)c2O1 (racemic) | human 5-hydroxytryptamine-2C (h5-HT2C) receptor (Homo sapiens, UniProt P28335) | 13 |
